Test system: α-glucosidase
Experiment: Inhibition of α-glucosidase
Format: biochemical
Conditions: Yes/No
Text: The inhibitory activity (IC50) and the cell cytotoxicity (IC50) of various compounds, as well as their effect on α-glucosidase and ceramide glucosyl transferase, are shown in Table 2.
attribute.measured: Inhibitor of α glucosidase

In the examples that follow, each entry is paired with its recorded Inhibitor of α glucosidase.
>>> df
                                   compound  recorded_value
0  CCCCCCCCCN1C[C@H](O)[C@@H](O)[C@@H](O)[C@H]1CO [N-nonyl DGJ]              No
1  OC[C@H]1NC[C@H](O)[C@@H](O)[C@@H]1O [DNJ, deoxynorjirimycin, reference compound]             Yes
2  CCCCN1C[C@H](O)[C@@H](O)[C@@H](O)[C@H]1CO [N-butyl DGJ, reference compound]              No
3  CCCCCCCCCN1C[C@H](O)[C@@H](O)[C@H](O)[C@H]1CO [N-nonyl DNJ, N-nonyl-deoxynojirimycin]             Yes
4  CCOCCCCCCN1C[C@H](O)[C@@H](O)[C@@H](O)[C@H]1C [N-7-oxa-nonyl MeDGJ]              No
5  CCCCN1C[C@H](O)[C@@H](O)[C@H](O)[C@H]1CO [N-butyl DNJ, N-butyl deoxynojiricmycin, reference compound]             Yes

Then this compound:
Query string: Request the reported Inhibitor of α glucosidase associated with CCCCCCCCCN1C[C@H](O)[C@@H](O)[C@@H](O)[C@H]1C [N-nonyl MeDGJ]
Result string: No
